Target: glutathione-S-transferase (GST) tagged LXRalpha LBD (ligand binding domain) (Homo sapiens, UniProt Q13133)
Construct: purchased Invitrogen pv4655
Sequence (Q13133 209-447 limits assumed): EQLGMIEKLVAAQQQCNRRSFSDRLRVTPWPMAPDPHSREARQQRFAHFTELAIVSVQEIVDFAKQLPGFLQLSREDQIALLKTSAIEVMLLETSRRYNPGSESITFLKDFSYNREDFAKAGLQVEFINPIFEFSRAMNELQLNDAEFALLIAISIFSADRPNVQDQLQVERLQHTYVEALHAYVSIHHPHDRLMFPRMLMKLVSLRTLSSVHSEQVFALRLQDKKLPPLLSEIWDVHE
Experiment: biochemical
Details: LXR alpha IP, potency (Inflection Point), compound-induced co-activator recruitment, TR-FRET
Protocol: While running the LanthaScreen™ TR-FRET Liver X Receptor Coactivator Assay, LXR alpha-LBD or LXR beta-LBD was added to ligand test compounds followed by addition of a mixture of a fluorescein-labelled coactivator peptide and terbium-conjugated anti-GST antibody. After an incubation period at room temperature, TR-FRET (time-resolved fluorescence resonance energy transfer) was measured using a filter-based instrument capable of TR-FRET, e.g. PerkinElmer Envision.
Below, each entry is listed alongside its reported EC50.
I only need the number, in nM, no unit after it.

The cases that follow already have their EC50 on record.
>>> assay_result("CN(C)C(=O)c1ccc(OCC[C@@H]2CC23CCN(C(=O)C(C)(c2ccccc2)C2CCC2)CC3)cc1Cl (single isomer, unassigned) [Example 12-14]")
343
>>> assay_result("CN(C)C(=O)c1ccc(OCCCCC2(C)CCN(C(=O)C3(c4ccccc4)CCCC3)CC2)cc1Cl [Example 9-1]")
411
>>> assay_result("CN(C)C(=O)c1ccc(OCCCCC2CCN(S(=O)(=O)c3c(Cl)cccc3Cl)CC2)nc1Cl [Example 7-2]")
429
>>> assay_result("CCOC(=O)N1CCN(C(=O)c2ccc(OCCCCC3CCN(C(=O)C(O)(c4ccccc4)C(F)(F)F)CC3)nc2Cl)CC1 (stereo not drawn) [Example 3-18]")
498
>>> assay_result("CN(C)C(=O)c1ccc(OCCCCC2CCN(S(=O)(=O)c3ccccc3C#N)CC2)nc1Cl [Example 7-3]")
2930

EC50 lookup needed for CN(C)C(=O)c1ccc(OCCC2CC23CCN(C(=O)C(C)(C)c2csc(N)n2)CC3)cc1Cl (single isomer, unassigned) [Example 12-10] , thanks. 3740

Record: CNC(=O)c1ccc(OCC[C@@H]2C[C@@H]2C2CCN(C(=O)[C@](O)(c3cc(F)cc(F)c3)C(F)(F)F)CC2)cc1Cl (single isomer, unassigned) [Example 10-3] 28

Record: CC(C)(C)OC(=O)NC1CN(C(=O)c2ccc(OCCCCC3CCN(C(=O)[C@](O)(c4ccccc4)C(F)(F)F)CC3)cc2Cl)C1 (single isomer, unassigned) [Example 8-11] 520

Record: CC(CCCOc1ccc(C(=O)N(C)C)c(Cl)c1)C1CCN(C(=O)C(O)(c2ccccc2)C(F)(F)F)CC1 (single isomer, unassigned) [Example 26-3] 125

Record: CN(C)CCCNC(=O)c1ccc(OCCCCC2CCN(C(=O)[C@](O)(c3ccccc3)C(F)(F)F)CC2)cc1Cl (single isomer, unassigned) [Example 8-19] 1240

Record: CC(C)(C(=O)N1CCC2(CC1)CC(CCOc1ccc(C(=O)N3CCCC3)c(Cl)c1)C2)c1ccccc1 [Example 34-3] 292

Record: CN(C)C(=O)c1ccc(OCCC2CC23CCN(C(=O)C2(c4ccccc4C(F)(F)F)CCC2)CC3)cc1Cl (single isomer, unassigned) [Example 12-6] 80

###

target: glutathione-S-transferase (GST) tagged LXRalpha LBD (ligand binding domain) (Homo sapiens); construct: purchased Invitrogen pv4655; test: biochemical; settings: LXR alpha IP, potency (Inflection Point), compound-induced co-activator recruitment, TR-FRET
Would you mind classing the entries by EC50? Ranges: low band (below 400 nM), middle band (400 nM to below 2000 nM), high band (2000 nM or more)

>>> assigned_class("CNC(=O)c1ccc(OC[C@H]2C[C@@H]2C2CCN(C(=O)[C@](O)(c3ccccc3)C(F)(F)C(F)(F)F)CC2)cc1Cl (single isomer, unassigned)")
"middle band"
>>> assigned_class("CC(CCCOc1ccc(C(=O)N(C)C)c(Cl)c1)C1CCN(C(=O)C(O)(c2ccccc2)C(F)(F)F)CC1 (single isomer, unassigned) [Example 26-4]")
"middle band"
>>> assigned_class("COc1cccc([C@@](O)(C(=O)N2CCC([C@H]3CC[C@@H](Oc4ccc(C(=O)N(C)C)c(Cl)c4)CC3)CC2)C(F)(F)F)c1 (single isomer, unassigned)")
"low band"
>>> assigned_class("CC(C)[C@@](O)(C(=O)N1CCC2(CC1)C[C@H]2CCOc1ccc(C(=O)N(C)C)c(Cl)c1)C(F)(F)F (single isomer, unassigned)")
"high band"
>>> assigned_class("CC(C)Oc1cccc(C(O)(C(=O)N2CCC(CCCCOc3ccc(C(=O)N(C)C)c(Cl)c3)CC2)C(F)(F)F)c1 (single isomer, unassigned)")
"middle band"

Into which bin does this molecule go? Cc1nnc(C(C)(C)C(=O)N2CCC3(CC2)CC3CCOc2ccc(C(=O)N(C)C)c(Cl)c2)s1 (single isomer, unassigned) high band

Record: CN(C)C(=O)c1ccc(OCCC2CC23CCN(C(=O)C(C)(C)c2ccsc2)CC3)cc1Cl (single isomer, unassigned) middle band

Record: COc1cccc([C@](O)(C(=O)N2CCC3(CC2)C[C@@H]3CCCOc2ccc(C(=O)N(C)C)c(Cl)c2)C(F)(F)F)c1 (single isomer, unassigned) low band

Record: CN(C)C(=O)c1ccc(OCC[C@@H]2C[C@@H]2C2CCN(C(=O)[C@@](O)(c3ccccc3)C(F)(F)F)CC2)nc1Cl (single isomer, unassigned) low band

Record: CN(C)C(=O)c1ccc(OCCCC2CCN(C(=O)[C@](O)(c3ccccc3)C(F)(F)F)CC2)nc1Cl (single isomer, unassigned) high band

Record: CN(C)C(=O)c1ccc(OCCCC2CC23CCN(C(=O)C2(c4ccccc4)CCCC2)CC3)cc1Cl (single isomer, unassigned) middle band

###

Below, each entry is listed alongside its reported pEC50.
biological target: glutathione-S-transferase (GST) tagged LXRbeta LBD (ligand binding domain) (Homo sapiens, UniProt P55055); construct: purchased Invitrogen pv4658; assay: LanthaScreen TR-FRET Liver X Receptor Coactivator Assay, LXR beta; assay type: biochemical; settings: LXR beta IP, potency (Inflection Point), compound-induced co-activator recruitment, TR-FRET
Sequence (P55055 222-460 limits assumed): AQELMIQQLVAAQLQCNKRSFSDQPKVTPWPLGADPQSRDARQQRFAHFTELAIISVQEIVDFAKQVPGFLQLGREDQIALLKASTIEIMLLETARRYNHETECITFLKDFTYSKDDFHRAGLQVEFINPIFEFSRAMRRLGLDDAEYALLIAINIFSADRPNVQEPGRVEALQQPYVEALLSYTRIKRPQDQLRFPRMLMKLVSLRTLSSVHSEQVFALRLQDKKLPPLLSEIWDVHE
Just so you know, pEC50 here is -log10 of the concentration in molar units; reply with that number alone.

>>> assay_result("CN(C)C(=O)c1ccc(OCCCCC2CCN(C(=O)C(O)(c3cccc(F)c3)C(F)(F)F)CC2)cc1Cl (single isomer, unassigned)")
8.15
>>> assay_result("CN(C)C(=O)c1ccc(OCC(C)(C)CCC2CCN(C(=O)C(O)(c3ccccc3)C(F)(F)F)CC2)cc1Cl (single isomer, unassigned)")
6.76
>>> assay_result("COc1cccc(C(O)(C(=O)N2CCC(C(C)CCCOc3ccc(C(=O)N(C)C)c(Cl)c3)CC2)C(F)(F)F)c1 (single isomer, unassigned)")
8.10
>>> assay_result("CN(C)C(=O)c1ccc(OC(F)(F)CCCC2CCN(C(=O)C(O)(c3ccccc3)C(F)(F)F)CC2)cc1Cl (single isomer, unassigned)")
7.07
>>> assay_result("CN(C)C(=O)c1ccc(OCCCCC2CCN(C(=O)C(C)(C)c3ccccc3)CC2)cc1Cl")
7.11

pEC50 lookup needed for CN(C)C(=O)c1ccc(OCCC2CC3(CCN(C(=O)C(O)(c4ccccc4)C(F)(F)F)CC3)C2)cc1Cl (single isomer, unassigned) , thanks. 7.80

Record: CC1(C)CCN(C(=O)c2ccc(OCCCCC3CCN(C(=O)C(O)(c4ccccc4)C(F)(F)F)CC3)cc2Cl)C1 (single isomer, unassigned) 7.74

Record: CN(C)C(=O)c1ccc(O[C@H]2C[C@@H](CC3CCN(C(=O)[C@](O)(c4cc(F)cc(Cl)c4)C(F)(F)F)CC3)C2)cc1Cl (single isomer, unassigned) 8.30

Record: COc1cccc([C@@](O)(C(=O)N2CCC(C[C@@H](C)CCOc3ccc(C(=O)N(C)C)c(Cl)c3)CC2)C(F)(F)F)c1 (single isomer, unassigned) 8.30

Record: CCc1cccc([C@@](O)(C(=O)N2CCC(C[C@H]3C[C@@H](Oc4ccc(C(=O)N(C)C)c(Cl)c4)C3)CC2)C(F)(F)F)c1 (single isomer, unassigned) 7.80

Record: `O=C(c1cscn1)N1CCC(CCCCOc2ccc(C(=O)N3CCCC3)c(Cl)c2)CC1` 5.36

Record: CN(C)C(=O)c1ccc(OCCCCC2CCN(C(=O)C(O)(c3cccc(-c4cnn(C)c4)c3)C(F)(F)F)CC2)cc1Cl (single isomer, unassigned) 6.91

Record: C[C@@H](CCC1CCN(C(=O)[C@](O)(c2cc(F)cc(F)c2)C(F)(F)F)CC1)COc1ccc(C(=O)N(C)C)c(Cl)c1 (single isomer, unassigned) 7.92

Record: COc1cccc([C@@](O)(C(=O)N2CCC(C[C@H]3C[C@@H](Oc4ccc(C(=O)N(C)C)c(Cl)c4)C3)CC2)C(F)F)c1 (single isomer, unassigned) 6.45

Record: CNC(=O)c1ccc(OC[C@H]2C[C@@H]2C2CCN(C(=O)[C@](O)(c3ccccc3)C(F)(F)C(F)(F)F)CC2)cc1Cl (single isomer, unassigned) 6.87

Record: `CN(C)C(=O)c1ccc(OCCCC2CCN(C(=O)c3c(F)cccc3F)CC2)nc1Cl` 6.80

Record: CN(C)C(=O)c1ccc(OCCCCC2CCN(C(=O)C(O)(c3ccccc3)C(F)(F)F)CC2)nc1C#N (centres unmarked) 7.52

Record: CCOC(=O)N1CCN(C(=O)c2ccc(OCCCCC3CCN(C(=O)C(O)(c4ccccc4)C(F)(F)F)CC3)nc2Cl)CC1 (centres unmarked) 7.77

Record: COc1cccc([C@](O)(C(=O)N2CCC(CC[C@H](C)COc3ccc(C(=O)N(C)C)c(Cl)c3)CC2)C(F)(F)F)c1 (single isomer, unassigned) 7.72
